These records show IC50 for Epidermal growth factor receptor (Homo sapiens, UniProt P00533).
measurement label: IC50 (µM)

In the examples that follow, each entry is paired with its recorded IC50.
- compound: "O=C(CCc1c(SSc2[nH]c3ccccc3c2CCC(=O)NCc2ccc(C(=O)O)c(O)c2)[nH]c2ccccc12)NCc1ccc(C(=O)O)c(O)c1"
  measurement label: "IC50"
  endpoint result: 8.5
- compound: "O=[N+]([O-])CCc1c(SSc2[nH]c3ccccc3c2CC[N+](=O)[O-])[nH]c2ccccc12"
  measurement label: "IC50"
  endpoint result: 89
- compound: "CC(=O)OC(Cc1c(SSc2[nH]c3ccccc3c2CC(OC(C)=O)C(=O)NCc2ccccc2)[nH]c2ccccc12)C(=O)NCc1ccccc1 (stereo not drawn)"
  measurement label: "IC50"
  endpoint result: 28
- compound: "O=C(NCc1ccccc1)C(O)Cc1c(SSc2[nH]c3ccccc3c2CC(O)C(=O)NCc2ccccc2)[nH]c2ccccc12 (stereo not drawn)"
  measurement label: "IC50"
  endpoint result: 14
- compound: "CC(=O)NC(Cc1c(SSc2[nH]c3ccccc3c2CC(NC(C)=O)C(=O)NCc2ccccc2)[nH]c2ccccc12)C(=O)NCc1ccccc1 (stereo not drawn)"
  measurement label: "IC50"
  endpoint result: 51

a. N#CCCc1c(SSc2[nH]c3ccccc3c2CCC#N)[nH]c2ccccc12
b. COC(=O)c1ccc(CNC(=O)CCc2c(SSc3[nH]c4ccccc4c3CCC(=O)NCc3ccc(C(=O)OC)c(O)c3)[nH]c3ccccc23)cc1O
Form: Entry with minimum IC50 (choose one): a / b Write down the label attached to your selection.
a

###

- System: NIH3T3
- experiment summary: Compound was tested for the concentration necessary to inhibit swiss 3T3 Mouse Fibroblast cell growth rate by 50%.
- Type: functional, cell-based
measurement label: IC50 (µM)
Express the result in µM but write the number alone.

Examples with answers:
- compound: "NC(Cc1c(SSc2[nH]c3ccccc3c2CC(N)C(=O)NCc2ccccc2)[nH]c2ccccc12)C(=O)NCc1ccccc1 (centres undefined)"
  uom: "µM"
  IC50: 5.3
- compound: "O=C(CCc1c(SSc2[nH]c3ccccc3c2CCC(=O)NCc2ccccc2)[nH]c2ccccc12)NCc1ccccc1"
  uom: "µM"
  IC50: 5.9

Kindly indicate its recorded IC50. Item: O=C(O)CCc1c(SSc2[nH]c3ccccc3c2CCC(=O)O)[nH]c2ccccc12
60

Find the measured IC50 of O=C(Cc1c(SSc2[nH]c3ccccc3c2CC(=O)NCc2ccccc2)[nH]c2ccccc12)NCc1ccccc1 and report it.
2.7
